Test system: HCT 116 cell line
Test: Inhibition of Cell Growth (MTT tetrazolium salt assay)
Format: cell-based
Settings: Homo sapiens; HCT 116, MTT, 50% inhibition of growth; read-out: HCT 116 IC50
pIC50: −log10 of the molar value.
# maps each entry to its pIC50
VALUE TYPE: pIC50

>>> val("c1ccc2[nH]c(-c3n[nH]c4ccc(-c5cccc6[nH]ccc56)cc34)nc2c1 [Example 48]")
5.41
>>> val("Cc1c(O)cccc1-c1ccc2[nH]nc(-c3nc4c(CO)cccc4[nH]3)c2c1 [Example 23]")
5.40
>>> val("Clc1ccncc1-c1ccc2[nH]nc(/C=C/c3ccccc3)c2c1 [Example 42]")
5.52
>>> val("Oc1ccc(F)c(-c2ccc3[nH]nc(-c4nc5ccccc5[nH]4)c3c2)c1F [Example 49]")
5.64
>>> val("Cc1c(-c2ccc3[nH]nc(-c4nc5ccccc5[nH]4)c3c2)ccc(CCCO)c1O [Example 26]")
5.55
>>> val("COc1c(O)cccc1-c1ccc2[nH]nc(-c3nc4ccccc4[nH]3)c2c1 [Example 47]")
5.68
>>> val("Cc1c(CN2CCOCC2)cncc1-c1ccc2[nH]nc(-c3nc4ccccc4[nH]3)c2c1 [Example 91]")
6.47
>>> val("Fc1cccc2cncc(-c3ccc4[nH]nc(/C=C/c5ccccc5)c4c3)c12 [Example 44]")
5.30
>>> val("CC(C)(C)NCc1cccc2[nH]c(-c3n[nH]c4ccc(-c5cncc6ccccc56)cc34)nc12 [Example 39]")
7.74
>>> val("Cc1c(-c2ccncc2)cncc1-c1ccc2[nH]nc(-c3nc4ccc(NS(C)(=O)=O)cc4[nH]3)c2c1 [Example 71]")
6.15
>>> val("CC(CO)CNCc1cccc2[nH]c(-c3n[nH]c4ccc(-c5cncc6ccccc56)cc34)nc12 (stereo not shown) [Example 35]")
6.89
>>> val("C(=C\\c1n[nH]c2ccc(-c3cncc4ccccc34)cc12)/c1ccccc1 [Example 16]")
5.52

---

Biological target: CDK4/cyclin D3 (Homo sapiens, UniProt P11802)
Sequence (P11802 2-303 limits assumed): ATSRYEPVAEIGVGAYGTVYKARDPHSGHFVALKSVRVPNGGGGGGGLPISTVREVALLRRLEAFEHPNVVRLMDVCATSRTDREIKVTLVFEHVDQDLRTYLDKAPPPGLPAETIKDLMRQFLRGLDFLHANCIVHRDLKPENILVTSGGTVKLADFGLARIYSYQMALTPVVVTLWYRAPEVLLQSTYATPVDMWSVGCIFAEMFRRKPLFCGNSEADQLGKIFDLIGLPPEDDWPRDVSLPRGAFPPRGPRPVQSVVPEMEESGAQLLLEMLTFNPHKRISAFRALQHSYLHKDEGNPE
Sequence (P30281 1-264 limits assumed, further chain): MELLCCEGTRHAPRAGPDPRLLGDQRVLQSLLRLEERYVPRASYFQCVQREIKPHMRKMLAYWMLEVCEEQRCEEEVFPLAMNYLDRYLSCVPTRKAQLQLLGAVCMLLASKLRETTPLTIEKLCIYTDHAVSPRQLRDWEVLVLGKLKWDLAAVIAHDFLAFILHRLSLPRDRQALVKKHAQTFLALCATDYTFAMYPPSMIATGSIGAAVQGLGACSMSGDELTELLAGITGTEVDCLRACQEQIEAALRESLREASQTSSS
Experiment: Inhibition of CDK4/Cyclin D Retinoblastoma Kinase Activity
Settings: apparent Ki
# Ki listing for each entry below
VALUE TYPE: Ki (nM)

>>> val("C(=C\\c1n[nH]c2ccc(-c3ccc4ccncc4c3)cc12)/c1ccccc1")
690
>>> val("c1ccc2[nH]c(-c3n[nH]c4ccc(-c5cncc6c5CCCN6)cc34)nc2c1")
26
>>> val("Cc1c(CN(C)C)cncc1-c1ccc2[nH]nc(-c3nc4ccccc4[nH]3)c2c1")
6.9
>>> val("CC(CO)CNCc1cccc2[nH]c(-c3n[nH]c4ccc(-c5cncc6ccccc56)cc34)nc12 (stereo not drawn)")
3.2
>>> val("Clc1ccncc1-c1ccc2[nH]nc(-c3nc4ccccc4[nH]3)c2c1")
3.5
>>> val("Cc1c(-c2ccncc2)cncc1-c1ccc2[nH]nc(-c3nc4c(CN(C)C)cccc4[nH]3)c2c1")
4.7
